test system: HepG2; assay: Cytotoxicity against human HepG2 cells at 15 uM after 72 hrs by MTT assay relative to control; format: functional; details: HepG2, 72 h, values are per cent of control
Readout: viability, % of control at 15 µM (%)
One number for each entry, in %.

Example results:
given_smiles=CNC(=O)[C@H]1Cc2c([nH]c3ccccc23)[C@@H]2N(C)c3ccccc3C(=O)N12 readout="viability, % of control at 15 µM" measured_value=101
given_smiles=CN1c2ccccc2C(=O)N2[C@H](C(=O)N3CCOCC3)Cc3c([nH]c4ccccc34)[C@@H]12 readout="viability, % of control at 15 µM" measured_value=88

I would be grateful if you could share the reported viability, % of control at 15 µM for CN1c2ccccc2C(=O)N2[C@@H](C(=O)N3CCOCC3)Cc3c([nH]c4ccccc34)[C@H]12 . 94

----------
tested on: HepG2; assay: Cytotoxicity against human HepG2 cells at 15 uM after 72 hrs by MTT assay relative to control; assay type: functional; details: HepG2, 72 h, values are per cent of control
Readout: viability, % of control at 15 µM (%)
One number for each entry, in %.

given_smiles=CN1CCN(C(=O)[C@@H]2Cc3c([nH]c4ccccc34)[C@H]3N(C)c4ccccc4C(=O)N23)CC1 measured_value=83
given_smiles=CN1c2ccccc2C(=O)N2[C@H](C(=O)O)Cc3c([nH]c4ccccc34)[C@@H]12 measured_value=107

State recorded viability, % of control at 15 µM for all listed compounds.
1. CNC(=O)[C@@H]1Cc2c([nH]c3ccccc23)[C@H]2N(C)c3ccccc3C(=O)N12
2. CN1c2ccccc2C(=O)N2[C@H](C(=O)N3CCSCC3)Cc3c([nH]c4ccccc34)[C@@H]12

[101, 90]

# query: viability, % of control at 15 µM of entry CN1c2ccccc2C(=O)N2CCc3c([nH]c4ccccc34)[C@@H]21 76

----------
Molecular target: NAD-dependent protein deacetylase sirtuin-1 (Homo sapiens)
Sequence (whole entry): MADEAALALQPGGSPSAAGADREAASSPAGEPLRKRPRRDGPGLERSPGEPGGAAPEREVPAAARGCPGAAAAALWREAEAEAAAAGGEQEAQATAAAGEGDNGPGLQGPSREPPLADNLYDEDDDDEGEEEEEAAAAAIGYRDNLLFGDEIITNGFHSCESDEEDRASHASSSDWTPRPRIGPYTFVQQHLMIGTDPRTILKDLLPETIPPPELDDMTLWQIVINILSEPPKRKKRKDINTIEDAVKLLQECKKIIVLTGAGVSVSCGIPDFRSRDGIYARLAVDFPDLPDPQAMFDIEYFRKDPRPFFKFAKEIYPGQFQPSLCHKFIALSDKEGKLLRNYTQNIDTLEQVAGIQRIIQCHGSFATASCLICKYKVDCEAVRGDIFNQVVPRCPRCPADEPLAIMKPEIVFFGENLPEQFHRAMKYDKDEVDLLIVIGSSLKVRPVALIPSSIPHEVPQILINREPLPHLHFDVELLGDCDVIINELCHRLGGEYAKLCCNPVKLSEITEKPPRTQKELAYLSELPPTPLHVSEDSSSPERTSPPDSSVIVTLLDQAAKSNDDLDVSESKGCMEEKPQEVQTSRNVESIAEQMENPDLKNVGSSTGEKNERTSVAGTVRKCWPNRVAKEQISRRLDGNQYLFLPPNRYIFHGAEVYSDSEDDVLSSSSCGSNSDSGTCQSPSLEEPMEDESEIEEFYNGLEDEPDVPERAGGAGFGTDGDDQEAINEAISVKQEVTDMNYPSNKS
Experiment: Inhibition of recombinant GST-SIRT1 (unknown origin) using KI177 as substrate at 50 uM after 45 mins by fluorescence assay
Readout: inhibition (%)
One number for each entry, in %.

These recorded examples may help you get a feel for the data.
given_smiles=CN1c2ccccc2C(=O)N2[C@H](C(=O)N3CCCCC3)Cc3c([nH]c4ccccc34)[C@@H]12 readout=inhibition measured_value=6.5
given_smiles=CN1CCN(C(=O)[C@@H]2Cc3c([nH]c4ccccc34)[C@H]3N(C)c4ccccc4C(=O)N23)CC1 readout=inhibition measured_value=5.3
given_smiles=CN1c2ccccc2C(=O)N2CCc3c([nH]c4ccccc34)[C@H]21 readout=inhibition measured_value=4.2
given_smiles=COC(=O)[C@@H]1Cc2c([nH]c3ccccc23)[C@H]2N(C)c3ccccc3C(=O)N12 readout=inhibition measured_value=3.3
given_smiles=COC(=O)[C@H]1Cc2c([nH]c3ccccc23)[C@@H]2N(C)c3ccccc3C(=O)N12 readout=inhibition measured_value=7.8
given_smiles=CN1c2ccccc2C(=O)N2[C@H](C(=O)N3CCOCC3)Cc3c([nH]c4ccccc34)[C@@H]12 readout=inhibition measured_value=4.1
given_smiles=CN1c2ccccc2C(=O)N2[C@H](C(=O)O)Cc3c([nH]c4ccccc34)[C@@H]12 readout=inhibition measured_value=26

Let's switch to this compound now.
Recorded inhibition for CN1c2ccccc2C(=O)N2[C@H](C(=O)N3CCSCC3)Cc3c([nH]c4ccccc34)[C@@H]12 , please? 8.2
